Target: Sodium-dependent serotonin transporter (Homo sapiens, UniProt P31645)
Sequence (P31645 whole entry): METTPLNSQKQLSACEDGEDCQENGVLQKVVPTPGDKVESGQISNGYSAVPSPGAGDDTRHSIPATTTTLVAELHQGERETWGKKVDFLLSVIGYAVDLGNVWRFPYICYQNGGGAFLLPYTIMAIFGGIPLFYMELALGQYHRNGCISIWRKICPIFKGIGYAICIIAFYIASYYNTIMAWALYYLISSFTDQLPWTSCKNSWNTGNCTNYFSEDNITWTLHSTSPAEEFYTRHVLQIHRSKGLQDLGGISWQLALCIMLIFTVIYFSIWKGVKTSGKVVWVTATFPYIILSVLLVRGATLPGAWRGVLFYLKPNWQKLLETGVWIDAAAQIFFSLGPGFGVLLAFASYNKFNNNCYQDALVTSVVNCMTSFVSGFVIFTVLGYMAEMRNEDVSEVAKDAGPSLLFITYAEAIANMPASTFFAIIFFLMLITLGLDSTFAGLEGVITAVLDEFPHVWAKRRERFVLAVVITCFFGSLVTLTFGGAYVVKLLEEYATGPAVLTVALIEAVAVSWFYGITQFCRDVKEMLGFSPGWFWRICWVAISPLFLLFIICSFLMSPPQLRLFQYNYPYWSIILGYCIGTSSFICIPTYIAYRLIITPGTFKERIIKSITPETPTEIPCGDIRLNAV
pKi: −log10 of the molar value.
Classify as follows. Reported pKi greater than or equal to 7: met. Reported pKi below: not met.

compound="CCN(C)[C@H]1C[C@@H](c2ccc(Cl)c(Cl)c2)c2ccccc21 (relative stereo)" discrete_label=met
compound="CN(C)[C@@H]1C[C@@H](c2ccc(Cl)c(Cl)c2)c2ccccc21 (stereo in doubt; (+))" discrete_label=met
compound="CN(C)[C@H]1C[C@@H](c2ccc(Cl)c(Cl)c2)c2ccccc21 (relative stereo)" discrete_label=met
compound="CCCN[C@H]1C[C@@H](c2ccc(Cl)c(Cl)c2)c2ccccc21 (relative stereo)" discrete_label="not met"

Origin of values: ChEMBL document CHEMBL1133565
